Tested on: Abeta total
assay-summary: Cellular αLisa assay in SKNBE2 cells, Abeta total
Type: cell-based
condition-info: Homo sapiens, SKNBE2, 18 h, human neuroblastoma SKNBE2 expressing hAPP695, incubated for 18 hours; read-out: Cellular αlisa assay in SKNBE2 cells Aβtotal pIC50 (converted)
measurement-kind: IC50 (µM)

Example entries and their recorded answers appear below.
INSERT INTO results (compound, target_under_test, measurement_kind, meas_value) VALUES
  ('COc1cncc(-c2cccc(C3(C)N=C(N)CN(C)C3=O)c2)c1 (racemic)', 'Abeta total', 'IC50', 1.51),
  ('Cc1cnc(C(=O)Nc2cccc(C3(C)N=C(N)CN(C)C3=O)c2)cn1 (racemic)', 'Abeta total', 'IC50', 1.15);

a. CCN1CC(N)=NC(C)(c2cc(-c3cncc(OC)c3)c(F)cc2F)C1=O (racemic)
b. CN1CC(N)=NC(C)(c2cccc(NC(=O)c3ccc(Cl)cn3)c2)C1=O (racemic)
c. CN1CC(N)=NC(C)(c2cccc(-c3cncnc3)c2)C1=O (racemic)
Prompt: Parameters: sort_field (IC50), sort_dir (desc). List the labels according to the requested ordering.
Response: a, c, b
